- assay-system: T1, Anti-PSMA Fab (SEQ ID NOs: 19, 20)
- T1 construct: Biotinylated and captured on neutravidin coated plates in the phage ELISA; also called 006 PSMA Fab
- experiment-notes: phage binding ELISA on plate-captured PSMA Fab, wells pre-incubated with PSMA antigen as competitor
Where no end group is shown, it is not given here.
parameter-measured: Anti-PSMA Fab signal in the presence of PSMA

binder: LVKWCIPQWMCEQA [Phage-2228]
readout-number: 0.0712

binder: LLKWCTPPWMCELH [Phage-2229]
readout-number: 0.0932

binder: QLNWCRPAWMCEGF [Phage-2232]
readout-number: 0.128

binder: EIQWCTPSWMCPWL [Phage-2233]
readout-number: 0.0668

binder: LFKVCTPSWMCSGF [Phage-2225]
readout-number: 0.0813

binder: TEKWCIPQWMCEAT (cysteine pairing not given here; also: displayed on phage, fused to pIII, Peptide-180 library clone, tested as clonal phage (peptide fused to the pIII filament of the bacteriophage)) [Phage-2222]
readout-number: 0.0783

binder: SELWCIPPWMCNFL [Phage-2227]
readout-number: 0.0684

binder: AIKWCTPPWMCDWH [Phage-2224]
readout-number: 0.131

binder: FNKWCVPAWMCSDM [Phage-2235]
readout-number: 0.0946

binder: MPNWCTPTWMCQGF [Phage-2234]
readout-number: 0.0682
